Data origin, for the record: patent US20240190936A1

Target: human GLP-1 receptor (human, UniProt P43220 24-463)
Assay: cell-based or functional assay
metricName: cAMP EC50, in the presence of FBS and BSA
// unit must come after the numeric part

Solved entries (count: 3):
binder="YXHGTXTSDYSILLDKKAQXAFIEYLLEGGPSSGAPPPS (Aib at 2; αMeF(2F) at 6; K17 conjugated at the epsilon-amino group with (2-[2-(2-amino-ethoxy)-ethoxy]-acetyl)2-(γGlu)-CO-(CH2)18-CO2H; Aib at 20; C-terminal amide, Synthetic acylated peptide) [Example 3]" datavalue="13.1 nM"
binder="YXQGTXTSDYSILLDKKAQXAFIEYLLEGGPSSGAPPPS (Aib at 2; αMeF(2F) at 6; K17 conjugated at the epsilon-amino group with (2-[2-(2-amino-ethoxy)-ethoxy]-acetyl)-(γGlu)-CO-(CH2)18-CO2H; Aib at 20; C-terminal amide, Synthetic acylated peptide) [Example 4]" datavalue="10.6 nM"
binder="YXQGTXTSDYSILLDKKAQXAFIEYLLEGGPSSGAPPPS (Aib at 2; αMeF at 6; K17 conjugated at the epsilon-amino group with (2-[2-(2-amino-ethoxy)-ethoxy]-acetyl)2-(γGlu)-CO-(CH2)18-CO2H; Aib at 20; C-terminal amide, Synthetic acylated peptide) [Example 1]" datavalue="12.6 nM"

# next binder below
So, YXQGTXTSDYSIXLDKKAQXAFIEYLLEGGPSSGAPPPS (Aib at 2; αMeF at 6; αMeL at 13; K17 conjugated at the epsilon-amino group with (2-[2-(2-amino-ethoxy)-ethoxy]-acetyl)2-(γGlu)-CO-(CH2)18-CO2H; Aib at 20; C-terminal amide, Synthetic acylated peptide) [Example 2] ? Its cAMP EC50, in the presence of FBS and BSA was 11.6 nM
